target: T1, TCE-31 (anti-CD3 scFv W238A; anti-TROP2 wt); assay: competition ELISA, TCE on captured CD3; Table 41 run, peptide series with ceiling >100 µM
T1 construct: scFv on the Fab heavy chain; also called TCE-31 (W238A)
Where no end group is shown, it is not given here.
value kind: IC50 (µM)
Give the number; µM is assumed, so skip it.

Supply reported IC50 belonging to this binder: VYCGPEFDESVGCA (cysteine pairing not given here; also: biotinylated, site not given here, mask peptide for the CD3 scFv) [Peptide-73]
25.9
